Tested on: T-47D breast
Method notes: NCI tumour cell line growth inhibition, 48 h
Entries annotated with measured GI50
Assay endpoint: GI50

{"columns": ["Smiles code", "Experimental value"],
 "data": [
  ["Cc1nc(N(C)C)nc(-c2cccc(-c3ccn(CCN(C)C)n3)c2)c1C", "> 20 µM"],
  ["COc1ccc(S(=O)(=O)Nc2c(/C=C\\c3cc(OC)c(OC)c(OC)c3)ccc(OC)c2O)cc1OC", "> 86.9 µM"],
  ["CCCCCCOc1ccc(/C=N/Nc2cc(C)nc3ccc(Br)cc23)cc1", "1.82 µM"],
  ["COc1ccc2c(c1)cn1c3ccc(OC)cc3[nH]c(=O)c21", "1.04 µM"],
  ["COc1cc(Cl)c(C)cc1NC(=O)c1cc2ccccc2cc1O", "2.07 µM"],
  ["CN(Cc1cccc(Cl)c1)c1ccc(CO)c(Cl)c1", "0.746 µM"],
  ["CCc1cc(Cc2cc(CC)cc(C(C)(C)C)c2O)c(O)c(C(C)(C)C)c1", "2.59 µM"],
  ["COc1cc(/C=C/C(=O)c2ccc(SC)cc2)cc(OC)c1OC", "9.68 µM"]
]}

Reference source: PubChem BioAssay (NCI)
